Source listed as patent US20260167721A1.

- Tgt: T1, recombinant human CD3 epsilon/gamma heterodimer (human, UniProt P07766 23-126; P09693 23-116)
- T1 construct: Recombinant heterodimer used as analyte in Octet; also called hCD3 E/G
- Method Description: BLI (Octet), mAb 5 ug/mL on FAB2G sensor, hCD3 E/G 200-50 nM;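 also: antibodies purified from hybridoma supernatants, measured by Octet binding to recombinant human CD3 protein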
Could you please report measured Response for the items listed next?
Format: numeric value only, no unit, no commentary.

## Input Input ABL-CD3-79 (antibody, V domains shown, mAb purified from hybridoma; chimeric AlivaMab IgG (human VH, CH1 and upper hinge; mouse middle hinge, CH2, CH3; human light chain)) VH: EVQLVESGGGLVKPGGSLRLSCAASGFTVSNYSMNWVRQAPGKGLEWVSCISRSSSYIYYADSVKGRFTISRDNAKNSLFLQMNSLRAEDTAVYYCARERWELLYFDYWGQGTLVTVSS VL: QTVVTQEPSFSVSPGGTVTLTCGLSSGSVSTSYYPSWYQQTPGQAPRTLIYSTNTRSSGVPDRFSGSILGNKAALTITGAQADDESDYYCVLYMGSGIWVFGGGTKLTVL , output reported Response.
## Output 0.07

## Input Return Response (reported value) for this binder: ABL-CD3-73 (antibody, V domains shown, mAb purified from hybridoma; chimeric AlivaMab IgG (human VH, CH1 and upper hinge; mouse middle hinge, CH2, CH3; human light chain)) VH: EVQLVESGGGLVKPGGSLRLSCAASGFTITSYSMNWVRQAPGKGLEWVSTFSRSSTYIYYADSVKGRFTISRDNAKNSLYLQMNSLRAEDTAVYYCAREKWDLLYFDYWGQGTLVTVSS VL: NFMLTQPHSVSESPGKTVTISCTRSSGSIASNYVQWYQQRPGSSPTTVIYEDNRRPSGVPDRFSGSIDSSSNSASLTISGLKTEDEADYYCQSYDNSNRVFGGGTTLTVL
## Output 0.99

## Input Identify measured Response associated with ABL-CD3-75 (antibody, V domains shown, mAb purified from hybridoma; chimeric AlivaMab IgG (human VH, CH1 and upper hinge; mouse middle hinge, CH2, CH3; human light chain)) VH: EVQLVESGGGLVKPGGSLRLSCAASGFTFSTYSLNWVRQAPGKGLEWVSSISVSSRYIYFADSVKGRFTISRDNAKNSLYLQMNSLRAEDTAVYYCARDRRELLLDYWGQGTLVTVSS VL: SYELTQPPSVSVSPGQTARITCSGDALPKKYAYWYQQKSGQAPVLVIYEDSKRPSGIPERFSGSSSGTMATLTISGAQVEDEADYYCYSTDSSGNHNWVFGGGTKLTVL
## Output 0.19
